Tested on: BMP2 signaling
Protocol Details: cells
Condition Label: Homo sapiens, MDA-MB-231
Reported Property: pIC50
Interpret pIC50 as the negative base-10 log of the concentration measured in mol/L.

Entry under review: CN1CCN(CCOc2cc(OC3CCOCC3)c3c(Nc4c(Cl)ccc5c4OCO5)ncnc3c2)CC1 [saracatinib] . Reported pIC50?
7.21
